- target-under-test: T1, HLA-A*0201 (human)
- T1 construct: also called HLA-A2.1; HLA A2.1
- experiment-summary: iTopia off-rate;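 further: Half-life of peptide complexes with plate-bound HLA-A2, peptides loaded 18 h at 21 C, washed, then held at 37 C over several time points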
Quick list: t1/2 per entry.
Output spec: single numeric token, no unit.

Query: t1/2; subject: DSLSHKAVQ [cdr2 372-380 DSLSHKAVQ]
6.3

Can you check LGATGAYRA [cdr2 237-245 LGATGAYRA] next?
1.2

Can you check LSLTETIEC [cdr2 113-121 LSLTETIEC] next?
0.51

Can you check KILSLTETI [cdr2 111-119 KILSLTETI] next?
10.5

Can you check ALKVKYEEL [cdr2 355-363 ALKVKYEEL] next?
0.8

Can you check TILSSLAGS (Position printed as 313-221) [cdr2 313-221 TILSSLAGS] next?
1.1

Can you check LVLKENSEL [cdr2 225-233 LVLKENSEL] next?
0.8

Can you check YLTKQVELL [cdr2 65-73 YLTKQVELL] next?
8.1

Just for reference, patent US20090208538A1 is where these values come from.
